# IC50 annotations
Target: CYP2D6 (Homo sapiens, UniProt P10635)
Sequence (P10635 whole entry): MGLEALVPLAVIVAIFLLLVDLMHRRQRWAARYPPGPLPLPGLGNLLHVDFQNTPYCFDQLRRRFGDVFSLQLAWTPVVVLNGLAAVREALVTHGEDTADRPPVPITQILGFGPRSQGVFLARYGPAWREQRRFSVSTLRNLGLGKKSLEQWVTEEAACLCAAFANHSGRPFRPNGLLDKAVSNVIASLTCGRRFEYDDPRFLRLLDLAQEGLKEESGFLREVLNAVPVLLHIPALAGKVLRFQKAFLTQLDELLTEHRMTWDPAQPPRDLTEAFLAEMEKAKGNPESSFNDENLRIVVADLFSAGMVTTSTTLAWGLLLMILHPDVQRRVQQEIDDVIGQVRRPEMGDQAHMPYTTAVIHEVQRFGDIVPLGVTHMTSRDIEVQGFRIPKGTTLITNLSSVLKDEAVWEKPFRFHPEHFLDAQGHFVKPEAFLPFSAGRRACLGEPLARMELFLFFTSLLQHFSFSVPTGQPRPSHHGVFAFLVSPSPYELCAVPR
Test: CYP2D6 inhibition assay (bufuralol, pooled human liver microsomes)
Settings: 2D6 IC50 (uM), CYP2D6 inhibition
READOUT KIND: IC50 (µM)

> print(dat)
                            chemical.smiles  readout.kind  measurement
1  C#Cc1cc(F)cc(C[C@H](NC(C)=O)[C@H](O)CN[C@H]2CC3(CCC3)Oc3ncc(CC(C)(C)C)cc32)c1          IC50          1.2
2  CC(=O)N[C@@H](Cc1cc(F)cc(-c2cncs2)c1)[C@H](O)CN[C@H]1CC2(CCC2)Oc2ncc(CC(C)(C)C)cc21          IC50          0.4
3  CO[C@H](C)C(=O)N[C@@H](Cc1cc(F)cc(F)c1)[C@H](O)CN[C@H]1CC2(CCC2)Oc2c1cc(CC(C)C)nc2-c1ccncc1          IC50          0.2

====

Biological target: Beta Secretase enzyme (BACE) (Homo sapiens, UniProt P56817)
Sequence (P56817 46-501): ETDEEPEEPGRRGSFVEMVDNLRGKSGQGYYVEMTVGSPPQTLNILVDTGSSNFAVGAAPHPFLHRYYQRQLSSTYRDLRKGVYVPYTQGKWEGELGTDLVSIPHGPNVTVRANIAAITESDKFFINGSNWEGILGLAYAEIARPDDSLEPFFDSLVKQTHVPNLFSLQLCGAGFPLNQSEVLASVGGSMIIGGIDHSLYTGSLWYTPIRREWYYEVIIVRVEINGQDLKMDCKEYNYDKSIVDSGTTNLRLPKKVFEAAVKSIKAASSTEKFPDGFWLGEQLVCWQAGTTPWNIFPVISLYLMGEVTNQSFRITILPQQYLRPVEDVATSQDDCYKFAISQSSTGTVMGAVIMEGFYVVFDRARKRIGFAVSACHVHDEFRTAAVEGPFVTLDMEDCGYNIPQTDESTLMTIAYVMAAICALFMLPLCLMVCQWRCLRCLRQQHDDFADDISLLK
Assay: In vitro enzymatic BACE FRET (fluorescence resonance energy transfer) assay;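 further: fluorescence read after 1 h with 50 nM quenched peptide substrate spanning the BACE cleavage site, in pH 4.2 acetate buffer containing 10% DMSO and nonionic detergent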
Format: biochemical
Conditions: BACE enzyme FRET assay; read-out: BACE1 FRET assay (IC50)
Field 'label' (enum: Criterion met / Criterion not met). Set to Criterion met when IC50 is strictly under 20 nM; else Criterion not met.

> print(dat)
                                    compound     assigned.label
 1  CC(=O)N[C@@H](Cc1cccc(F)c1)[C@H](O)CN[C@H]1CC2(CCC2)Oc2ncc(C[C@H](C)C(F)(F)F)cc21      Criterion met
 2  CC(=O)N[C@@H](Cc1ccc(F)cc1)[C@H](O)CN[C@H]1CC2(CCC2)Oc2ncc(CC3(C(F)(F)F)CC3)cc21  Criterion not met
 3  CC(C)(C)Cc1cnc2c(c1)[C@@H](NC[C@@H](O)[C@H](Cc1ccc3c(c1)OCO3)NC(=O)C(F)(F)F)CC1(CCC1)O2  Criterion not met
 4  COCC(=O)N[C@@H](Cc1ccc(F)cc1)[C@H](O)CN[C@H]1CC2(CCC2)Oc2ncc(CC(C)(F)F)cc21  Criterion not met
 5  COCC(=O)N[C@@H](Cc1ccc(F)c(OC(F)F)c1)[C@H](O)CN[C@H]1CC2(CCC2)Oc2ncc(CC(C)(C)C)cc21      Criterion met
 6  CC(=O)N[C@@H](Cc1cccc(F)c1)[C@H](O)CN[C@H]1CC2(CCC2)Oc2ncc(CC(C)(C)C(F)F)cc21      Criterion met
 7  CC(=O)N[C@@H](Cc1ccc(F)cc1)[C@H](O)CN[C@H]1CC2(CCC2)Oc2ncc(CC(C)(F)F)cc21  Criterion not met
 8  CO[C@H](C)C(=O)N[C@@H](Cc1cccc(F)c1)[C@H](O)CN[C@H]1CC2(CCC2)Oc2cnc(CC(C)(C)F)cc21  Criterion not met
 9  COCC(=O)N[C@@H](Cc1ccccc1)[C@H](O)CN[C@H]1CC2(CCC2)Oc2ncc(CC(C)(F)F)cc21      Criterion met
10  CO[C@H](C)C(=O)N[C@@H](Cc1ccc2c(c1)OC(F)(F)O2)[C@H](O)CN[C@H]1CC2(CCC2)Oc2ncc(CC(C)(C)C)cc21  Criterion not met
11  COC(C)C(=O)NC(Cc1ccc2c(c1)OCO2)C(O)CNC1CC2(CC(C)C2)Oc2ncc(CC(C)(C)C)cc21 (centres unmarked)      Criterion met
12  COCC(=O)NC(Cc1ccc(F)c(F)c1)C(O)CNC1CC2(CC(O)C2)Oc2ncc(CC(C)(C)C)cc21 (centres unmarked)      Criterion met
13  CC(=O)NC(Cc1ccc2c(c1)OCO2)C(O)CNC1CC2(CC(O)C2)Oc2ncc(CC(C)C)cc21 (centres unmarked)      Criterion met
14  COc1cc(C[C@H](NC(C)=O)[C@H](O)CN[C@H]2CC3(CCC3)Oc3ncc(CC(C)(C)C(F)F)cc32)ccc1Cl      Criterion met
15  CO[C@H](C)C(=O)N[C@@H](Cc1cccc(F)c1)[C@H](O)CN[C@H]1CC2(CCC2)Oc2ncc(CC(C)(C)C(F)F)cc21      Criterion met
16  COCC(=O)N[C@@H](Cc1ccc2c(c1)OCO2)[C@H](O)CN[C@H]1CC2(CCC2)Oc2ncc(CCC(F)(F)F)cc21  Criterion not met
17  COCC(=O)N[C@@H](Cc1ccc2c(c1)OCCO2)[C@H](O)CN[C@H]1CC2(CCC2)Oc2ncc(CC(C)(C)C)cc21  Criterion not met
18  COCC(=O)NC(Cc1ccc2c(c1)OCO2)C(O)CNC1CC2(CC(F)C2)Oc2ncc(CC(C)(C)C)cc21 (centres unmarked)  Criterion not met
19  COCC(=O)N[C@@H](Cc1ccc(F)cc1)[C@H](O)CN[C@H]1CC2(CCC2)Oc2cnc(CC(C)(C)F)cc21  Criterion not met
20  CC(=O)N[C@@H](Cc1ccc2c(c1)OCO2)[C@H](O)CN[C@H]1CC2(CCC2)Oc2ccc(CC(C)(C)C)cc21      Criterion met
21  CC(=O)NC(Cc1ccc(F)cc1)C(O)CNC1CC2(CCC2)Oc2ncc(CC(C)C(F)F)cc21 (centres unmarked)  Criterion not met
22  CC(C)(C)Cc1cnc2c(c1)[C@@H](NC[C@@H](O)[C@H](Cc1ccc3c(c1)OCO3)NC(=O)CF)CC1(CCC1)O2      Criterion met
23  COCC(=O)N[C@@H](Cc1ccc2c(c1)OCO2)[C@@H](CN[C@H]1CC2(CCC2)Oc2ncc([C@H](F)C(C)(C)C)cc21)OC  Criterion not met
24  COCC(=O)N[C@@H](Cc1ccc2c(c1)OCO2)[C@H](O)CN[C@H]1CC2(CCC2)Oc2ncc(CC3(C(F)(F)F)CC3)cc21  Criterion not met
25  COCC(=O)N[C@@H](Cc1ccc(F)cc1)[C@H](O)CN[C@H]1CC2(CCC2)Oc2ncc([C@H](O)C(C)(C)C)cc21  Criterion not met
26  COCC(=O)N[C@@H](Cc1ccc2c(c1)OCO2)[C@H](O)CN[C@H]1CC2(CCC2)Oc2ccc(CC(C)(C)C)cc21  Criterion not met

====

Molecular target: CYP3A4 (CYP3A) (Homo sapiens);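 further: inhibition of CYP3A-mediated 1-hydroxymidazolam formation after 10 min incubation with NADPH, quantified by HPLC MS relative to metabolite produced without test compound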
Sequence (P08684 2-503): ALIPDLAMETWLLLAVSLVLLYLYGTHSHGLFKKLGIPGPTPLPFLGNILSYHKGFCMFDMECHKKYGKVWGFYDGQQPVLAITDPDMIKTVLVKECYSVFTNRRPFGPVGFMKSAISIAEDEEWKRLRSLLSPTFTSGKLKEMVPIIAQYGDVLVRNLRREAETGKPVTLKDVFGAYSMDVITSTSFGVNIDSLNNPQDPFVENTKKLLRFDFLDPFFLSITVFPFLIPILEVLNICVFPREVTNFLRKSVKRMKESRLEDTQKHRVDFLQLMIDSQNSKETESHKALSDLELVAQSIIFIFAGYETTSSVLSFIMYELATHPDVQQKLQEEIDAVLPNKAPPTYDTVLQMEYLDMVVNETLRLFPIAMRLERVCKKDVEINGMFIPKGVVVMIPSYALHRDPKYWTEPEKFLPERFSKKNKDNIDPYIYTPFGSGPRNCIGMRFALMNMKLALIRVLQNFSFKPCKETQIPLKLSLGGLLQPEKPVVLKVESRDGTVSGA
Assay: in vitro
Conditions: microsomes, pH 7.4
READOUT KIND: IC50 (nM)

> print(dat)
                                    molecule  result.units  comparison.operator  measurement
 1  COCC(=O)N[C@@H](Cc1cccc(F)c1)[C@H](O)CN[C@H]1CC2(CCC2)Oc2c1cc(CC(C)(C)F)cc2-n1ccnc1            nM                    =          100
 2  C#Cc1ccc(C[C@H](NC(=O)[C@@H](C)OC)[C@H](O)CN[C@H]2CC3(CCC3)Oc3ncc(CC(C)(C)C)cc32)cc1            nM                    =          100
 3  CC(=O)N[C@@H](Cc1ccc2c(c1)OCO2)[C@H](O)CN[C@H]1CC2(CCC2)Oc2ncc(C(F)(F)C(C)(C)C)cc21            nM                    =          200
 4  COCC(=O)N[C@@H](Cc1ccc(-c2nccs2)c(F)c1)[C@H](O)CN[C@H]1CC2(CCC2)Oc2ncc(CC(C)C)cc21            nM                    =          200
 5  CC(=O)N[C@@H](Cc1ccc(-c2cncs2)cc1)[C@H](O)CN[C@H]1CC2(CCC2)Oc2ncc(CC(C)(C)C)cc21            nM                    =          200
 6  COCC(=O)N[C@@H](Cc1cc(F)cc(Cl)c1)[C@H](O)CN[C@H]1CC2(CCC2)Oc2ncc(CC(C)(F)F)cc21            nM                    =          500
 7  COCC(=O)N[C@@H](Cc1cc(F)cc(F)c1)[C@H](O)CN[C@H]1CC2(CCC2)Oc2c1cc(CC(C)C)nc2Cl            nM                    =          600
 8  COCC(=O)N[C@@H](Cc1cccc(F)c1)[C@H](O)CN[C@H]1CC2(CCC2)Oc2c(Br)cc(CC(C)C)cc21            nM                    =         1500
 9  CNc1cc(CC(C)(C)C)cc2c1OC1(CCC1)C[C@@H]2NC[C@@H](O)[C@H](Cc1cc(F)cc(F)c1)NC(=O)COC            nM                    =         1800
10  CO[C@H](C)C(=O)N[C@@H](Cc1ccc2c(c1)OCO2)[C@H](O)CN[C@H]1CC2(CCC2)Cc2sc(CC(C)(C)C)cc21            nM                    =         2600
11  CC(=O)N[C@@H](Cc1ccc(F)cc1)[C@H](O)CN[C@H]1CC2(CCC2)Oc2c1cc(CC(C)(C)C)nc2Nc1ccccc1            nM                    ≥        27000
12  CC(=O)N[C@@H](Cc1cccc(C#N)c1)[C@H](O)CN[C@H]1CC2(CCC2)Oc2c(-c3ccncc3)cc(CC(C)(C)C)cc21            nM                    =          100
13  CC(C)(C)Cc1cnc2c(c1)[C@@H](NC[C@@H](O)[C@H](Cc1ccc(F)cc1)NC(=O)COC(F)F)CC1(CCC1)O2            nM                    =          400
14  COCC(=O)N[C@@H](Cc1cccc(-c2ncco2)c1)[C@H](O)CN[C@H]1CC2(CCC2)Oc2ncc(CC(C)C)cc21            nM                    =          200
15  COCC(=O)N[C@@H](Cc1ccc(F)cc1)[C@H](O)CN[C@@H]1CC2(CCC2)Oc2c1cc(CC(C)(C)C)nc2-n1ccnc1            nM                    =          100
16  C#Cc1cc(C[C@H](NC(=O)COCC)[C@H](O)CN[C@H]2CC3(CCC3)Oc3ncc(CC(C)(C)C)cc32)ccc1F            nM                    =          100
17  CC(C)(C)Cc1cnc2c(c1)[C@@H](NC[C@@H](O)[C@H](Cc1ccc(F)cc1)NC(=O)[C@@H]1CCO1)CC1(CCC1)O2            nM                    =         1100
18  COCC(=O)N[C@@H](Cc1ccc2c(c1)OCO2)[C@H](O)CN[C@H]1CC2(CCC2)Oc2ncc([C@H]3CC3(C)C)cc21            nM                    =          100
19  C#Cc1cccc(C[C@H](NC(=O)COC)[C@H](O)CN[C@H]2C[C@@]3(CCOC3)Oc3ncc(CC(C)(C)C)cc32)c1            nM                    =          100
20  CC#Cc1cnc2c(c1)[C@@H](NC[C@@H](O)[C@H](Cc1cccc(-c3nccs3)c1)NC(=O)COC)CC1(CCC1)O2            nM                    =          300
21  COCC(=O)N[C@@H](Cc1ccc(-c2nccs2)cc1)[C@H](O)CN[C@H]1CC2(CCC2)Oc2ncc(CC(C)C)cc21            nM                    =          200
22  COCC(=O)N[C@@H](Cc1cccc(-c2nccs2)c1)[C@H](O)CN[C@H]1CC2(CCC2)Oc2ncc(C3CCCC3)cc21            nM                    =          200
23  CO[C@H](C)C(=O)N[C@@H](Cc1ccccc1)[C@H](O)CN[C@H]1CC2(CCC2)Oc2c1cc(CC(C)C)cc2-n1ccnc1            nM                    =          100
24  COCC(=O)N[C@@H](Cc1ccccc1)[C@H](O)CN[C@H]1CC2(CCC2)Oc2ccc(C[C@H](C)F)cc21            nM                    =        18400
25  CC(C)(C)Cc1cnc2c(c1)[C@@H](NC[C@@H](O)[C@H](Cc1ccc3c(c1)OCO3)NC(=O)CC1CCS(=O)(=O)C1)CC1(CCC1)O2 (stereo partly shown)            nM                    =          100

Hello, the source for this data is patent US8163909B2, in case you need it.
